Kindly supply the reported log10 of IC50 values for the records listed here.
test.system: full-length beta-Catenin (Uniprot ID P35222) (Homo sapiens (Human)) (UniProt P35222)
Sequence (P35222 whole entry): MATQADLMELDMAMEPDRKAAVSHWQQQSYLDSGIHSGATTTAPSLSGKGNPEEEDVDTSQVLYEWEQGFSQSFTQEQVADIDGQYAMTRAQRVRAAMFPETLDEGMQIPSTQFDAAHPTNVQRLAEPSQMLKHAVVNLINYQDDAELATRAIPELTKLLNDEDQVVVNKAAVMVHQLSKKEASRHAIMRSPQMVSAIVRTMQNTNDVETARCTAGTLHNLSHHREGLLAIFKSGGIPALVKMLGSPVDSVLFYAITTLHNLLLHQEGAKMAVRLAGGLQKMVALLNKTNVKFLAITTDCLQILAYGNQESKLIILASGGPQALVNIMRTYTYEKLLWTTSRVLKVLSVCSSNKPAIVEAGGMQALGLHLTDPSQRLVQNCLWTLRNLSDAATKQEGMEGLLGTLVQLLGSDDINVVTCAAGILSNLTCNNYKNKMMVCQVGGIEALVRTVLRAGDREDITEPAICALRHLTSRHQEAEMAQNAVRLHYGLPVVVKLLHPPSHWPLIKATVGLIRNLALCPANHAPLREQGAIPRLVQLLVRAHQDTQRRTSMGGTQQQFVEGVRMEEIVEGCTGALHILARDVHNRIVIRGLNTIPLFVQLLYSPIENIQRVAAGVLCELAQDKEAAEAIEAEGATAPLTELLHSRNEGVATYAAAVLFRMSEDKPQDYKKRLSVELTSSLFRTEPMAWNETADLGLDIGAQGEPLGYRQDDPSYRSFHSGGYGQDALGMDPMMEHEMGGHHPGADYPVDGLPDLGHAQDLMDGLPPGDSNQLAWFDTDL
test.summary: fluorescence polarization competition; 10 nM full-length beta-catenin + 10 nM 5FAM-TCF4(10-53), peptide titrated
Starred links: 1 amine or outer side, 2 acyl side, 3 side chain; linkers in the order of their positions; H or OH if unused. Positions of bridges follow the written chain, without caps; N, C: chain ends. Non-standard residues stand in square brackets, D forms with d. Primed or numbered codes have the meaning given here. PyrS2″ = (S)-3-amino-1-((pent-4-en-1-yloxy)carbonyl)pyrrolidine-3-carboxylic acid (stapling residue), C=CCCCOC(=O)N1CC[C@@](N[*:1])(C(=O)[*:2])C1; B5(4) = 2,2-bis(4-pentenyl)glycine = 2-amino-2-(pent-4-en-1-yl)hept-6-enoic acid (stitching residue), C=CCCCC(CCCC=C)(N[*:1])C(=O)[*:2]; B5(5) = 2,2-bis(4-pentenyl)glycine, 2-amino-2-(pent-4-en-1-yl)hept-6-enoic acid (stitching residue), C=CCCCC(CCCC=C)(N[*:1])C(=O)[*:2]; Phe(3-COOH) = N[C@@H](Cc1cccc(C(=O)O)c1)C(=O)O; Phe(2-CF3) = N[C@@H](Cc1ccccc1C(F)(F)F)C(=O)O; Ala(4-thiazolyl) = N[C@@H](Cc1cscn1)C(=O)O; Bta = N[C@@H](Cc1csc2ccccc12)C(=O)O; Lys(iPr) = CC(C)NCCCC[C@H](N)C(=O)O; αAllylPro = C=CC[C@@]1(C(=O)O)CCCN1; tBuAla = CC(C)(C)C[C@H](N)C(=O)O; 2Thi = N[C@@H](Cc1cccs1)C(=O)O; 3Thi = N[C@@H](Cc1ccsc1)C(=O)O; Cha = N[C@@H](CC1CCCCC1)C(=O)O; hSer = N[C@@H](CCO)C(=O)O
The figures below represent log10 of IC50, where IC50 is stated in nM.

// field: log10 of IC50; key: Ac-[αAllylPro]D[tBuAla][B5(4)]D[Phe(3-COOH)]AAFL[PyrS2″][Phe(2-CF3)][Bta][dA]-NH2 (staple 1-4, 4-11) [I-2091] ; value = 1.69

Lab note: Ac-[αAllylPro]N[Cha][B5(5)]DQ[Lys(iPr)]AFN[PyrS2″][2Thi][Bta][hSer]-NH2 (staple 1-4, 4-11) [I-2075] gave log10 of IC50 of 3.37

Per the records, this binder ( Ac-[αAllylPro]N[Cha][B5(5)]DQ[Lys(iPr)]AFN[PyrS2″]F[Bta]-NH2 (staple 1-4, 4-11) [I-2073] ) has log10 of IC50 equal to 2.60

For reference, reported log10 of IC50 for Ac-[αAllylPro]N[Cha][B5(5)]DQ[Lys(iPr)]A[Ala(4-thiazolyl)]N[PyrS2″]F[Bta][hSer]-NH2 (staple 1-4, 4-11) [I-2072] stands at 3.92

get_value(item= Ac-[αAllylPro]N[Cha][B5(5)]DQ[Lys(iPr)]AFN[PyrS2″][3Thi][Bta][hSer]-NH2 (staple 1-4, 4-11) [I-2074] , readout=log10 of IC50) returns 2.90
